molecular target: Kras and SOS1 (biotin-tagged human Kras loaded with GDP, His-tagged human SOS1) (Homo sapiens, UniProt P01116, G12D); construct: made in house; host or cells: E. coli (stated for Kras only); assay: Protein-protein interaction inhibition between Kras and SOS1 (KrasGl2D-SOS PPI) using AlphaScreen; format: binding; conditions: AlphaScreen; biotin-tagged human Kras loaded with GDP, His-tagged human SOS1; read-out: KRAS G12D-SOS PPI IC50
Sequence (P01116 1-188 isoform P01116-2 G12D): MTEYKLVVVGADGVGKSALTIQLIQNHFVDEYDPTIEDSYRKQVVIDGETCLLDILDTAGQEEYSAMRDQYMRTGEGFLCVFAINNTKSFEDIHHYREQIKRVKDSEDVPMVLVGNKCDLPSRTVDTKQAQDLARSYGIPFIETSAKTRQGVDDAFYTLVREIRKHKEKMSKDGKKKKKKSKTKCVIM
Positions of bridges follow the written chain, without caps; N, C: chain ends. Non-standard residues stand in square brackets, D forms with d. Residues, ends and D or L forms follow the SMILES beside them. hPhe(3,5-F2-4-CF3) = N[C@@H](CCc1cc(F)c(C(F)(F)F)c(F)c1)C(=O)O; hPhe(3-Cl-4-CF3) = N[C@@H](CCc1ccc(C(F)(F)F)c(Cl)c1)C(=O)O; NEtPhe(4-Me) = CCN[C@@H](Cc1ccc(C)cc1)C(=O)O; NMeAla(cPr) = CN[C@@H](CC1CC1)C(=O)O; NMeCha = CN[C@@H](CC1CCCCC1)C(=O)O; NMeI = CC[C@H](C)[C@H](NC)C(=O)O; NMeD = CN[C@@H](CC(=O)O)C(=O)O; NMeL = CN[C@@H](CC(C)C)C(=O)O; NMeV = CN[C@H](C(=O)O)C(C)C; d(β3hA) = C[C@@H](N)CC(=O)O; NMeA = CN[C@@H](C)C(=O)O; Ac5c = NC1(C(=O)O)CCCC1; Aze = O=C(O)[C@@H]1CCN1; Sar = CNCC(=O)O
assay_endpoint: pIC50
Quick note: pIC50 values are minus log10 of concentrations in mol/L.

Tell me pIC50 reported for CC[C@H](C)[C@@H]1NC(=O)[C@H](CC2CC2)N(C)C(=O)C[C@@H](C)NC(=O)[C@H](C(C)C)N(C)C(=O)C2(CCCC2)NC(=O)[C@@H]2CCCN2C(=O)[C@H](CCc2ccc(C(F)(F)F)c(Cl)c2)NC(=O)CN(C)C(=O)[C@H](CC2CCCCC2)N(C)C(=O)CN(C)C(=O)CN(C)C1=O [Compound 248] (cyclo([Ac5c][NMeV][d(β3hA)][NMeAla(cPr)]I[Sar][Sar][NMeCha][Sar][hPhe(3-Cl-4-CF3)]P))
7.51

Name the recorded pIC50 of the item CC[C@H](C)[C@@H]1NC(=O)[C@H](CC(C)C)N(C)C(=O)C[C@@H](C(=O)N(C)C)N(C)C(=O)[C@H]([C@@H](C)CC)N(C)C(=O)C2(CCCC2)NC(=O)[C@@H]2CCCN2C(=O)[C@H](CCc2cc(F)c(C(F)(F)F)c(F)c2)NC(=O)CN(C)C(=O)[C@H](Cc2ccc(C)cc2)N(CC)C(=O)[C@@H]2CCN2C(=O)[C@H](C)N(C)C1=O [Compound 571] ([NMeL]I[NMeA][Aze][NEtPhe(4-Me)][Sar][hPhe(3,5-F2-4-CF3)]P[Ac5c][NMeI][NMeD]-NMe2; lactam N-11) in your answer.
9.08
